# System: ATP;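 further: ATP exposure 15 min at 22 °C before imaging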
# assayText: switch fluorescence ratio, 500 uM ATP over buffer (Cy3 cluster intensity, sum of 5 cycles each) (fold (ratio)); higher = stronger signal-on switching upon ATP binding; sequences stand for … in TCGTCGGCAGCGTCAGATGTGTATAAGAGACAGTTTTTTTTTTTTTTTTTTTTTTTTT…TC
# studyConditions: aptamer strand: ATP DNA aptamer (quencher-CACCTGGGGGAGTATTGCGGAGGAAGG + anchor), 100 nM annealed; ATP concentration: 500 uM
measure: switch fluorescence ratio
// response body must contain only the number

[ask] For the sequence shown here, TATATCGGCT , give the reported switch fluorescence ratio.
[reply] 1.03

[ask] For the sequence shown here, TCTCTTAAGT , give the reported switch fluorescence ratio.
[reply] 0.989

[ask] For the sequence shown here, GACTTGCTGG , give the reported switch fluorescence ratio.
[reply] 0.988

[ask] For the sequence shown here, GGGGTAGAAT , give the reported switch fluorescence ratio.
[reply] 1.03

[ask] For the sequence shown here, CGAATCGCCT , give the reported switch fluorescence ratio.
[reply] 1

[ask] For the sequence shown here, ATATAGTTCG , give the reported switch fluorescence ratio.
[reply] 0.967

[ask] For the sequence shown here, AGAAAAAGTT , give the reported switch fluorescence ratio.
[reply] 1.02

[ask] For the sequence shown here, ATGGTGTTTT , give the reported switch fluorescence ratio.
[reply] 0.98

[ask] For the sequence shown here, TTTGAAGCTA , give the reported switch fluorescence ratio.
[reply] 2.19

[ask] For the sequence shown here, TTAGGGAGTC , give the reported switch fluorescence ratio.
[reply] 0.992

[ask] For the sequence shown here, AATTGGGCAG , give the reported switch fluorescence ratio.
[reply] 0.997

[ask] For the sequence shown here, ACCTTGTATA , give the reported switch fluorescence ratio.
[reply] 0.971

[ask] For the sequence shown here, TAAGACGTCC , give the reported switch fluorescence ratio.
[reply] 1.02

[ask] For the sequence shown here, GATATATAGA , give the reported switch fluorescence ratio.
[reply] 0.998

[ask] For the sequence shown here, TTTTGGGAGG , give the reported switch fluorescence ratio.
[reply] 1

[ask] For the sequence shown here, GAGGAATTGG , give the reported switch fluorescence ratio.
[reply] 0.979

[ask] For the sequence shown here, TAGGGGTCCT , give the reported switch fluorescence ratio.
[reply] 1.01

[ask] For the sequence shown here, GGTTAAAGGG , give the reported switch fluorescence ratio.
[reply] 1.07

[ask] For the sequence shown here, CATCCGTGGG , give the reported switch fluorescence ratio.
[reply] 1.75

====

# System: ATP;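 further: ATP exposure 15 min at 22 °C before imaging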
# assayText: switch fluorescence ratio, 500 uM ATP over buffer (Cy3 cluster intensity, sum of 5 cycles each) (fold (ratio)); higher = stronger signal-on switching upon ATP binding; sequences stand for … in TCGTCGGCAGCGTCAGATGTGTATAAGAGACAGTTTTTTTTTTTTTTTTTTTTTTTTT…TC
# studyConditions: aptamer strand: ATP DNA aptamer (quencher-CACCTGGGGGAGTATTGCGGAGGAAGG + anchor), 100 nM annealed; ATP concentration: 500 uM
Response key: satisfied means switch fluorescence ratio >= 1; not satisfied means switch fluorescence ratio < 1.

[ask] Determine whether measured switch fluorescence ratio meets or exceeds 1 for GGTAACCTTT
[reply] satisfied

[ask] Determine whether measured switch fluorescence ratio meets or exceeds 1 for TGTAGCTTGT
[reply] satisfied

[ask] Determine whether measured switch fluorescence ratio meets or exceeds 1 for AGGAAGTGGG
[reply] not satisfied

====

# Test system: ATP;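 further: ATP exposure 15 min at 22 °C before imaging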
# assayText: switch fluorescence ratio, 500 uM ATP over buffer (Cy3 cluster intensity, sum of 5 cycles each) (fold (ratio)); higher = stronger signal-on switching upon ATP binding; sequences stand for … in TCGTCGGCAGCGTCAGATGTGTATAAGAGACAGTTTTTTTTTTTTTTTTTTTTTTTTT…TC
# studyConditions: aptamer strand: ATP DNA aptamer (quencher-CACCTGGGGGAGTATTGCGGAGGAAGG + anchor), 100 nM annealed; ATP concentration: 500 uM
measure: switch fluorescence ratio
// response body must contain only the number

[ask] For the sequence shown here, TTTCATTTCT , give the reported switch fluorescence ratio.
[reply] 1

[ask] For the sequence shown here, TGAATGATCG , give the reported switch fluorescence ratio.
[reply] 1.07

[ask] For the sequence shown here, TCGGGTATGT , give the reported switch fluorescence ratio.
[reply] 0.977

[ask] For the sequence shown here, GTTTTTCGAT , give the reported switch fluorescence ratio.
[reply] 1.02

[ask] For the sequence shown here, TCACGCCGGG , give the reported switch fluorescence ratio.
[reply] 1.04

[ask] For the sequence shown here, TCCCCAATAA , give the reported switch fluorescence ratio.
[reply] 3.11

[ask] For the sequence shown here, ACGGTACTGT , give the reported switch fluorescence ratio.
[reply] 1.4

[ask] For the sequence shown here, TGGCGATTGT , give the reported switch fluorescence ratio.
[reply] 0.986

[ask] For the sequence shown here, GCCTGAAGGG , give the reported switch fluorescence ratio.
[reply] 1

[ask] For the sequence shown here, GGTAGTCCGG , give the reported switch fluorescence ratio.
[reply] 1.02

====

Please go through the items and note down their switch fluorescence ratio.
# System: ATP;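 further: ATP exposure 15 min at 22 °C before imaging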
# assayText: switch fluorescence ratio, 500 uM ATP over buffer (Cy3 cluster intensity, sum of 5 cycles each) (fold (ratio)); higher = stronger signal-on switching upon ATP binding; sequences stand for … in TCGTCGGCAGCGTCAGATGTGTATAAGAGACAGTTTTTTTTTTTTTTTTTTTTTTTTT…TC
# studyConditions: aptamer strand: ATP DNA aptamer (quencher-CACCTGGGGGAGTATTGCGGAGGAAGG + anchor), 100 nM annealed; ATP concentration: 500 uM
// response body must contain only the number

[ask] Item ATCAATGGGT with ATP - switch fluorescence ratio?
[reply] 0.979

[ask] Item ATGTAATGGT with ATP - switch fluorescence ratio?
[reply] 1.01

[ask] Item CGTGCTGGCA with ATP - switch fluorescence ratio?
[reply] 1.02

[ask] Item GTTAGGGGCA with ATP - switch fluorescence ratio?
[reply] 1

[ask] Item TCCATTTATC with ATP - switch fluorescence ratio?
[reply] 0.982

[ask] Item GTGAGGGGGC with ATP - switch fluorescence ratio?
[reply] 0.993

[ask] Item TGGATGAGTG with ATP - switch fluorescence ratio?
[reply] 0.982

[ask] Item GGGATTAAAG with ATP - switch fluorescence ratio?
[reply] 1.02

[ask] Item AAGAAGGCGG with ATP - switch fluorescence ratio?
[reply] 0.985

[ask] Item CGGCGTCGGG with ATP - switch fluorescence ratio?
[reply] 1

[ask] Item TTTGTTTAAT with ATP - switch fluorescence ratio?
[reply] 1

====

# Test system: ATP;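 further: ATP exposure 15 min at 22 °C before imaging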
# assayText: switch fluorescence ratio, 500 uM ATP over buffer (Cy3 cluster intensity, sum of 5 cycles each) (fold (ratio)); higher = stronger signal-on switching upon ATP binding; sequences stand for … in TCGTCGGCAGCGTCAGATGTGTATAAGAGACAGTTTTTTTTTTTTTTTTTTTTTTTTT…TC
# studyConditions: aptamer strand: ATP DNA aptamer (quencher-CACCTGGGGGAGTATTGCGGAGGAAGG + anchor), 100 nM annealed; ATP concentration: 500 uM
Response key: T means switch fluorescence ratio >= 1; F means switch fluorescence ratio < 1.

[ask] Determine whether measured switch fluorescence ratio meets or exceeds 1 for ATAGTACTTT
[reply] T

[ask] Determine whether measured switch fluorescence ratio meets or exceeds 1 for AATTGACCGA
[reply] T

[ask] Determine whether measured switch fluorescence ratio meets or exceeds 1 for CTGTGGAGGG
[reply] F

[ask] Determine whether measured switch fluorescence ratio meets or exceeds 1 for GCGTTAGTAC
[reply] T

[ask] Determine whether measured switch fluorescence ratio meets or exceeds 1 for CCTTGAATGG
[reply] T

[ask] Determine whether measured switch fluorescence ratio meets or exceeds 1 for GTAATGGGCA
[reply] T

[ask] Determine whether measured switch fluorescence ratio meets or exceeds 1 for TGGGTCATGA
[reply] T

[ask] Determine whether measured switch fluorescence ratio meets or exceeds 1 for TCATCGCTTT
[reply] T

[ask] Determine whether measured switch fluorescence ratio meets or exceeds 1 for CCGGGCCGAA
[reply] T

[ask] Determine whether measured switch fluorescence ratio meets or exceeds 1 for TACGGGTAGC
[reply] T

[ask] Determine whether measured switch fluorescence ratio meets or exceeds 1 for TTTATTGACT
[reply] T

[ask] Determine whether measured switch fluorescence ratio meets or exceeds 1 for TGTAAACGGG
[reply] T

[ask] Determine whether measured switch fluorescence ratio meets or exceeds 1 for TATAAAAGGG
[reply] T

[ask] Determine whether measured switch fluorescence ratio meets or exceeds 1 for ATGTTTTTGG
[reply] T

[ask] Determine whether measured switch fluorescence ratio meets or exceeds 1 for GTTTTATAGG
[reply] F

[ask] Determine whether measured switch fluorescence ratio meets or exceeds 1 for GAGGGAAAAA
[reply] T

[ask] Determine whether measured switch fluorescence ratio meets or exceeds 1 for ACATCAGCGG
[reply] F

[ask] Determine whether measured switch fluorescence ratio meets or exceeds 1 for TAGTTGGGGA
[reply] T

[ask] Determine whether measured switch fluorescence ratio meets or exceeds 1 for TGGTTAGGTT
[reply] F

[ask] Determine whether measured switch fluorescence ratio meets or exceeds 1 for CGTATGTTGG
[reply] T

The measurements presented in this section are drawn from the supplement of paper PMC10126150.
